# TEST_NAME: Metabolic stability in mouse liver microsome assessed as half life at 1 uM incubated upto 45 mins in presence of NADPH-regenerating system by LC-MS analysis
# Assay type: ADME
# CONDITION_DETAILS: liver microsomes
Listed here: items and their measured half-life at […], 1 µM.

{"COMPOUND": "Cc1cc(OCc2nnc(SC3C=CCCC3)n2-c2cccnc2)ccc1-c1ccc(S(C)(=O)=O)cc1 (stereo not drawn)", "half-life at […], 1 µM": "< 10 min"}

State its half-life at […], 1 µM: Cc1cc(OCc2nnc(SC3C=CCCC3)n2-c2cccnc2)ccc1C#CCOC(=O)N1CCN(C)CC1 (stereo not drawn)
< 10 min

State its half-life at […], 1 µM: Cc1cc(OCc2nnc(SC3CCOCC3)n2-c2cccnc2)ccc1-c1ccc(S(C)(=O)=O)cc1
< 10 min
